# measuredOn: T1, M5-2
# T1 construct: also called PD1 mutant M5-2
# assayText: scFv-phage ELISA
Measured OD490, listed per entry for reference.
metricName: OD490

* PD1-29H3 (antibody, V domains shown, scFv-phage in the screening ELISA; later whole IgG) VH: QMQLVESGGNLVQPGRSLRLSCAASGFTFDDYGMHWVRQAPGKGLEWVSSISWNSGTIGYADSVKGRFTISRDNAKNSLYLQMNSLRSEDTAVYYCARLLHQMNEHEFMDVWGQGTTVTVSS VL: QLVLTQPSSMSEAPGQRVTISCSGGTSNIGTNAVNWYQQPPGKAPTLLIYYDDRLTSGVSDRFSGSKSGTSASLAISRLQSEDEADYYCAAWDDSLNGWVFGGGTKLTVL | 3.7
* PD1-45F1 (antibody, V domains shown, scFv-phage in the screening ELISA; later whole IgG) VH: QVQLVQSGAEVKKPGASVKLSCKASGYTFNSYYVHWVRQAPGQGLEWMGIINPSDGSATYAQKFQGRVTMTSDTSTSSVYMELSSLRSEDTAVYYCARDGNYYDSRGYYYDTFDMWGQGTLITVSS VL: SYELTQDPAVSVALGQTVRITCQGDSLRTYYASWYQQKPGQAPILVIYGKNNRPSGIPDRFSGSSSGNTASLTITAAQAEDEADYYCNSRDSSGKSLVFGGGTKLTVL | 3.9
* PD1-51D9 (antibody, V domains shown, scFv-phage in the screening ELISA; whole IgG in the other assays) VH: QVQLVESGAEVKKPGASVKLSCKASGYTFSSYWMHWVRQAPGQRLEWMGEINPGNGHTNYNEKFKSRVTITVDKSASTAYMELSSLRSEDTAVYYCAREGDGSYWGYFDSWGQGTPITVSS VL: DIVMTQTPLSLPVTPGEPASISCRSSQSLLHSNGNNYLDWYLQKPGQSPQLLIYLGSYRASGVPDRFSGSGSGTDFTLKISRVEAEDVGLYYCMQGLQIPSTFGPGTKVDIK | 0.6

The reported numbers originate from patent US20190248900A1.
